For each entry below, report its IC50 value.
test system: MV-4-11 cells; assay: Effect of the compound on proliferation of MV-4-11 cells (MTS); assay type: cell-based; settings: Homo sapiens, MV4-11, 168 h, 7 days, MTS, read-out: Inhibitory activity (IC50)

Recorded results for 3 compounds are shown here.
compound | experimental.target | IC50
O=C1CCC(N2Cc3c(OCc4cn(C56CC7CC(CC(C7)C5)C6)nn4)cccc3C2=O)C(=O)N1 (stereo not drawn) | MV-4-11 cells | < 1000 nM
Nc1cccc2c1C(=O)N(C1CCC(=O)NC1=O)C2=O (stereo not drawn) [Pomalidomide, pomalidomide, reference compound] | MV-4-11 cells | > 20000 nM
Cc1nc2cccc(N)c2c(=O)n1C1CCC(=O)NC1=O (stereo not drawn) [CC-122, reference compound] | MV-4-11 cells | > 20000 nM

Answer for every listed entry: what is its IC50? The entries follow.
1. O=C1CCC(N2Cc3c(OCc4cn(-c5ccc(Cl)c(Cl)c5)nn4)cccc3C2=O)C(=O)N1 (stereo not drawn)
2. O=C1CCC(N2Cc3c(OCc4cn(-c5ccc6[nH]ccc6c5)nn4)cccc3C2=O)C(=O)N1 (stereo not drawn)
3. O=C1CCC(N2Cc3c(OC[C@H]4CCN(c5ccc(OC(F)(F)F)cc5)C4)cccc3C2=O)C(=O)N1 (stereo partly drawn)
4. O=C1CCC(N2Cc3c(OCc4cn(-c5ccc(Cl)cc5)nn4)cccc3C2=O)C(=O)N1 (stereo not drawn)
5. O=C1CCC(N2Cc3c(OCc4ncc(-c5ccc(OC(F)(F)F)cc5)o4)cc(F)cc3C2=O)C(=O)N1 (stereo not drawn)

1. < 1000 nM
2. < 1000 nM
3. 1000 to 20000 nM
4. < 1000 nM
5. < 1000 nM

For every record below, what is its IC50?
1. O=C1CCC(N2Cc3c(OCc4cn(-c5cccc(OC(F)(F)F)c5)nn4)cccc3C2=O)C(=O)N1 (stereo not drawn)
2. O=C1CCC(N2Cc3c(OCc4cn(-c5ccc(OC(F)(F)F)cc5)nn4)cc(F)cc3C2=O)C(=O)N1 (stereo not drawn)

1000 to 20000 nM
< 1000 nM

Each compound below has a reported value. Please supply its IC50.
1. O=C1CCC(N2Cc3c(OC[C@@H]4CCN(c5ccc(OC(F)(F)F)cc5)C4)cccc3C2=O)C(=O)N1 (stereo partly drawn)
2. O=C1CCC(N2Cc3c(OCc4ccc(CN5CCOCC5)cc4)cccc3C2=O)C(=O)N1 (stereo not drawn) [CC-220, reference compound]

1. 1000 to 20000 nM
2. > 20000 nM
